// provenance: the supplement of paper PMC9170038

- System: MS2 coat protein
- procedure details: apparent KD of MS2 coat protein; designed switch direction (-1 OFF switch, 1 ON switch): 1; higher = weaker reporter binding
- assay conditions: Eterna round: R95; input ligand: none
apparent KD of MS2 coat protein values, listed per item

record sequence: GUAGGACAUGAGGAUCACCCAUGUGGAGAGGAACGAGGAUAUGUGAGAGGAGUGCAGAGGACAGAAGGCGUGGAGG [JR_SS1_Sub027] (puzzle: Same State 1)
tested system: MS2 coat protein
apparent KD of MS2 coat protein, nM: 62.1
//
record sequence: ACCCAAAGUAUAUGGGAGCAAGCUUUUUAACAUGAGGAUCACCCAUGUACUCGUCUUAUAAGCAGUCGAAAGACUGC [Sensor 100 - 4] (puzzle: Sensor for hsa-mir-208a)
tested system: MS2 coat protein
apparent KD of MS2 coat protein, nM: 814
//
record sequence: UACCAACAUAUAGAACAAGCGUGCUCGUCACAUGAGGAUCACCCAUGUCUAAACGCUGUACCUACAUCCUCAGCGCC [Eddiso] (puzzle: Sensor for hsa-mir-208a)
tested system: MS2 coat protein
apparent KD of MS2 coat protein, nM: 22.8
//
record sequence: UCUUGGUUUUUGCUCGUUUUUUGUGUUGAACAUGAGGAUCACCCAUGUAUUGUACGAUCCAAUUUAAUAAUGGUCCG [JMF 60] (puzzle: Sensor for hsa-mir-208a)
tested system: MS2 coat protein
apparent KD of MS2 coat protein, nM: 50.2
//
record sequence: GAUAAACAUGAGGAUCACCCAUGUAAUAAUAUGGGAGGAUAUCAGAAUGUAUGUAUGUAAUGAGAAGGCCUAAUAG [Mat - Same State 1 - Mod of Eli - D72] (puzzle: Same State 1)
tested system: MS2 coat protein
apparent KD of MS2 coat protein, nM: 391

###

- Tested on: MS2 coat protein
- procedure details: apparent KD of MS2 coat protein; higher = weaker reporter binding
- assay conditions: Eterna round: R107; input ligand: arginine 13.2 mM

record sequence: CGUAGUAUCAGACAUGAGGAUCACCCAUGUCGAGGACCGGUACGGCCGCCACUCGGCAGUUUGCGUCCUCAGGUACUCCAGGUAA [Larirexea]
apparent KD of MS2 coat protein [nM]: 14.8
//
record sequence: CAAAAUAUCGGAAGGAGCGCGGGUAGGCGGGUUGGAUCACAUGAGGAUCACCCAUGUAAAUCGCAGGUAGGUCGCCGAUAACGCG [XArg-B27]
apparent KD of MS2 coat protein [nM]: 52.9
//
record sequence: GAUCCGUACCAGACCUUCAAUGGACUCAGUCGAGGACCGGUACGGCCGCCACUCGGAGAAGAACAUGAGGAUCACCCAUGUGAUG [theeternabot_exclusion_MS2_Trp_A_36]
apparent KD of MS2 coat protein [nM]: 23.9
//
record sequence: AAUCGUAAGGCGGCCGCCACUACACAUGAGGAUCACCCAUGUCUCGCAGGCUUGCGUUGGGAUAGUAGGACCGGGCCAGUAAUAA [Exclusion - Tryptophan B (Freestyle 14)]
apparent KD of MS2 coat protein [nM]: 18.5
//
record sequence: UGUAUGUGAUUUGAUACCAGUCCAACUGGUAAAACAUGAGGAUCACCCAUGUAAAAUUGGGACCCUUGGCAGCAAAUCGCAUACU [SSTheo B #21]
apparent KD of MS2 coat protein [nM]: 144
//
record sequence: GUAAAGUAAAGAAGGAGCGUCGAAAAUGGGUAAACAUGAGGAUCACCCAUGUAAAGGGAACGACAGGUAGGUCGCUUUAUUUUAC [AstromonsSSArgB#17]
apparent KD of MS2 coat protein [nM]: 86.7

###

apparent KD of MS2 coat protein values, listed per item
- Tested on: MS2 coat protein
- procedure details: apparent KD of MS2 coat protein; higher = weaker reporter binding
- assay conditions: Eterna round: R107; input ligand: arginine 13.2 mM

record sequence: GGACAACAUGAGGAUCACCCAUGUCCUGAUACCAGUCAGCGCAGUGACCCUUGGCAGCAGACGGAUACGAAAUAACUGAGAGAUA [theeternabot_sameState_MS2_Theo_A_44]
apparent KD of MS2 coat protein (nM): 29.2
--
record sequence: ACGUAAUGCAGAAGGAGCGUCAUUUUAAAACAUGAGGAUCACCCAUGUAAUAUUUUUGUGUGACAGGUAGGUCGCUGAAGUACGA [JR_SSArginiB_Sub007]
apparent KD of MS2 coat protein (nM): 13.9
--
record sequence: UGUAUGGACUGAAGGAGCGCCUCAAAAUAGCAUGAGGAUCACCCAUGCAAGGCGAAAGCCGGGCAGGUAGGUCGCAGUCCAUACU [ArgBX 3]
apparent KD of MS2 coat protein (nM): 13.5
--
record sequence: GGGCCUAUAAGCAGGCCCACAGCGGGUGAUACCAGCAAUAAAACUUGCCCUUGGCAGCACACAGCUACAUGAGGAUCACCCAUGU [Beator]
apparent KD of MS2 coat protein (nM): 41.1
--
record sequence: AUUGUGAAGUCGGCCGCCACUGCAUAGUUUAACCUCUUUUAACAUGAGGAUCACCCAUGUAAUGACAGGACCGGGACAAUAGUAA [JR_SSTryptoB_Sub022]
apparent KD of MS2 coat protein (nM): 54.3
--
record sequence: AGACAUGAGGAUCACCCAUGUAGUAUGGAUACCAGAUGUAGAUUAGUCCCUUGGCAGCUGUGGUGAAGUGAUGCAUUGCUCCUAG [Exclusion - Theophylline A (Freestyle 1)]
apparent KD of MS2 coat protein (nM): 19.5

###

- System: K4 kissing-loop RNA reporter;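 further: bound reporter read as fluorescence of individual clusters on recovered sequencing chips by microscopy, with normalized cluster intensities fitted with a binding model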
- procedure details: apparent KD of K4 kissing-loop reporter; higher = weaker reporter binding
- assay conditions: Eterna round: R107; input ligand: tryptophan 2.4 mM

record sequence: UGAGUGAUGUUCAAGGACUAGAUCUAAAUAAAGGAUAUAGCAUACGCUAGAAGGUUAAAAUUUCUGGAUCCCAGUUUAAACCUUU [theeternabot_sameState_KL_FMN_A_49]
apparent KD of K4 kissing-loop reporter / nM: 195
//
record sequence: UGUACCGAGUCAGGAUAUGGCGUCGAAAGACGAAAACCAGUGAUGUUGGAAAUCUGCGAAAGCAGUCCAGAAGGGACUUGGUACU [FmnBS 25 #SwitchBubble #StaticStem #DoubleMagnetSystem]
apparent KD of K4 kissing-loop reporter / nM: 251
//
record sequence: AGACUACCACACUGUCAAUAGACAGUGAAUUAGGAUAUGCUGAUAAGCAGAAGGAGUGAUGUUCCGAGGUAGUCAAUAAAAUAAU [FmnAX 13 U30+G66]
apparent KD of K4 kissing-loop reporter / nM: 211
//
record sequence: UGAUUUAACUGAAGGAGCGGCAAUAGAGAAGGAAAUAUAGUGAUGUUAUAUAAGAGAGAGAGCCAGGUAGGUCGCAGAGGGAGGA [ExArgB.F]
apparent KD of K4 kissing-loop reporter / nM: 151
//
record sequence: CGUUUAGUGAUGUUAAGCGUCCACUACGAUACCAGAACUAUAACCUUCCCUUGGCAGCGUUUAUAUUGUAACUCAUGUGUUAAUU [theeternabot_exclusion_KL_Theo_A_11]
apparent KD of K4 kissing-loop reporter / nM: 468

###

- System: MS2 coat protein
- procedure details: apparent KD of MS2 coat protein; designed switch direction (-1 OFF switch, 1 ON switch): -1; higher = weaker reporter binding
- assay conditions: input ligand: FMN 200 uM
Parameter threshold = 30 nM. Response is fulfilled when apparent KD of MS2 coat protein meets or exceeds it, else not fulfilled.

record sequence: GCCCAGAGAGGAUAUACAUGAGGAUCACCCAUGUAGAGCUUGUCUGCAGUGAAAGGAUGUAGAAGGCUCGGGCA [Racearza] (Eterna round: R97, puzzle: Exclusion 3)
label value: fulfilled
//
record sequence: GGUGUCUUCAGAAGACAUGAGGAUCACCCAUGUAAAUGCACUGAGGAUAUACGGGCGACCGGCGUGUAGAAGGUAGAGCACGAA [Bivezale] (Eterna round: R96, puzzle: Exclusion NG 3)
label value: not fulfilled
//
record sequence: AACAAGGGUUAAUGUACGGACAUGAGGAUCACCCAUGUCCACGGAUGUGUGGAGAGGUCCUCUUUGGCUCGUCUUAU [Cac Sensor turn off var1 sub10] (Eterna round: R97, puzzle: Sensor, turn-off variant 1)
label value: fulfilled
//
record sequence: AUAUUGUGAGGAUAUGAACUUAGUAUGGAAAGAUACUAAGUUCAGAAGGCACAUGAGGAUCACCCAUGUUUCUC [Long static hairpin v12] (Eterna round: R97, puzzle: Exclusion 4)
label value: fulfilled
//
record sequence: CCGGAACAUGAGGAUCACCCAUGUCAGGAUAUCUCAAAAUCGUCGAAAGACGAUAACAAGAGAAGGGACACCGG [Eli x1 4.30] (Eterna round: R97, puzzle: Exclusion 1)
label value: not fulfilled
//
record sequence: GAGCUGUGAGGAUAUACAUGAGGAUCACCCAUGUUAAGGAAGUGGUGAAUAAUUUAGUGUAGAAGGCACUUAUU [JR_Ex3_Sub023] (Eterna round: R97, puzzle: Exclusion 3)
label value: fulfilled
//
record sequence: GAAAUCGAAGGAUAUCCGGGUGUCCACAUGAGGAUCACCCAUGUACUGGCCAAUAGCCAGGGAGAAGGUCGCCCAA [EX5 A.3] (Eterna round: R97, puzzle: Exclusion 5)
label value: fulfilled
//
record sequence: UCUCGUUGGCAAGGAUAUCCUACAUUGUUCUGGCCCGGGCAUGCUACAUGAGGAUCACCCAUGUGGGAGAAGGUGCGUCAUUGC [Design 23] (Eterna round: R96, puzzle: Exclusion NG 2)
label value: fulfilled
//
record sequence: AGCAUGCAGUAGGAUAUCGAUCCACAAUAUGAACGAGAAGGGCUGACAUGAGGAUCACCCAUGUGCGUCCGAAG [Ersoontiri] (Eterna round: R97, puzzle: Exclusion 6)
label value: not fulfilled
//
record sequence: CAGUACUGAGGAUAUACAUGAGGAUCACCCAUGUGAUUUGGUGCACGCGUACGUGUACGUAGAAGGCAGUACUG [JL 3.27 m5] (Eterna round: R97, puzzle: Exclusion 3)
label value: fulfilled
